Hello, the source for this data is patent US4303785A, in case you need it.

# Test system: L1210 leukemia
# Assay Info: Antitumor activity in BDF1 mice inoculated with L1210 leukemia cells (Table 6)
# Type: in vivo
# Condition Details: 1.25 mg./kg./day i.p., once daily for 10 days
Field: Antitumor Activity (T/C, prolongation rate of survival day). Provide a value for each of the compounds that follow.

See these solved cases before continuing.
Reported Antitumor Activity (T/C, prolongation rate of survival day) of COc1cccc2c1C(=O)c1c(O)c3c(c(O)c1C2=O)C[C@@](O)(C(=O)CO)C[C@@H]3O[C@H]1C[C@H](N)[C@H](OC2CCCCO2)[C@H](C)O1 (single isomer, unassigned; isomer b) [4'-O-PAb] : > 373%

Reported Antitumor Activity (T/C, prolongation rate of survival day) of COc1cccc2c1C(=O)c1c(O)c3c(c(O)c1C2=O)C[C@@](O)(C(=O)COC1CCCCO1)C[C@@H]3O[C@H]1C[C@H](N)[C@H](OC2CCCCO2)[C@H](C)O1 (single isomer, unassigned; isomer a) [4',14-di-O-PAa] : 109%

Reported Antitumor Activity (T/C, prolongation rate of survival day) of COc1cccc2c1C(=O)c1c(O)c3c(c(O)c1C2=O)C[C@@](O)(C(C)=O)C[C@@H]3O[C@H]1C[C@H](N)[C@H](OC2CCCCO2)[C@H](C)O1 (single isomer, unassigned; isomer b) [4'-O-PDb] : 122%

Consider the record given below.
Reported Antitumor Activity (T/C, prolongation rate of survival day) of COc1cccc2c1C(=O)c1c(O)c3c(c(O)c1C2=O)C[C@@](O)(C(=O)COC1CCCCO1)C[C@@H]3O[C@H]1C[C@H](N)[C@H](O)[C@H](C)O1 (stereo partly shown) [Example 14-O-PA, 14-O-tetrahydropyranyl adriamycin] : 126%
